- Test system: LOX IMVI melanoma
- Experimental details: NCI tumour cell line growth inhibition, 48 h
As shown below, each of these compounds has a reported TGI value.
State the answer as a number, implicitly in µM.

Compound: CCOC(=O)c1ccc2[nH]c(O)c(C(=Nc3ccc(N(C)C(=O)CN4CCN(C)CC4)cc3)c3ccccc3)c2c1
Value type: TGI
Meas value: 1.41
--
Compound: CC(C)CCC[C@@H](C)[C@H]1CCC2C3=CCn4c(=O)ccc(=O)n4C3CC[C@@]21C (stereo not given in full)
Value type: TGI
Meas value: 1.49
--
Compound: CC(C)OC(=O)c1ccc(CCc2cc(O)c(Br)cc2O)cc1
Value type: TGI
Meas value: 20.8

Shifting focus to the compound that follows.
Field TGI (entry CS(=O)(=O)Nc1ccc(Nc2c3ccccc3nc3cc(N)ccc23)cc1 ) reads 15.2
